# Tested on: Candida albicans
# MEASUREMENT PROTOCOL: Antifungal activity against Candida albicans NRRL Y-477 after 48 hrs by two-fold serial dilution technique
# Format: functional
# SETUP CONDITIONS: NRRL Y-477, 48 h
ENDPOINT NAME: MIC (µg/mL)

O=C1CSC2(CCCCC2)N1c1ccc(Br)cc1; 0.2

[P] O=C1/C(=N\Nc2ccc([N+](=O)[O-])cc2)SC2(CCCCC2)N1c1ccc(F)cc1
[Q] O=C1CSC2(CCCCC2)N1c1ccc(F)cc1
[R] Cc1ccc(-c2c3c(oc(=O)c2C#N)N(c2ccc(F)cc2)C2(CCCCC2)S3)cc1
INPUT: Arrange these molecules by their MIC, starting with the largest number. Write the labels out in the order the request specifies.
OUTPUT: P, R, Q

###

# Test system: Aspergillus niger
# MEASUREMENT PROTOCOL: Antifungal activity against Aspergillus niger after 48 hrs by two-fold serial dilution technique
# Type: functional
ENDPOINT NAME: MIC (µg/mL)

Cc1ccc(-c2c3c(oc(=O)c2C#N)N(c2ccc(F)cc2)C2(CCCCC2)S3)cc1; 0.3

[a] O=C1/C(=N\Nc2ccc([N+](=O)[O-])cc2)SC2(CCCCC2)N1c1ccc(F)cc1
[b] O=C1CSC2(CCCCC2)N1c1ccc(F)cc1
[c] N/N=C1\CSC2(CCCCC2)N1c1ccc(F)cc1
INPUT: List by increasing MIC. Write the labels out in the order the request specifies.
OUTPUT: b, a, c

###

# Test system: Aspergillus niger
# MEASUREMENT PROTOCOL: Antifungal activity against Aspergillus niger after 24 hrs by agar diffusion method
# Format: functional, organism-based
The source made the active and inactive calls. No cut-off for these calls is given here.
Give your call using only these classes: active, inactive

O=C1/C(=C\c2ccc(Cl)cc2)SC2(CCCCC2)N1c1ccc(F)cc1; inactive
Cc1ccc(C2NOC3=C2SC2(CCCCC2)N3c2ccc(F)cc2)cc1 (stereo unspecified); inactive
Cc1ccc(-c2c3c(oc(=O)c2C#N)N(c2ccc(F)cc2)C2(CCCCC2)S3)cc1; active
O=C1/C(=C\c2ccc(Cl)cc2)SC2(CCCCC2)N1c1ccc(Br)cc1; inactive
Cc1ccc(-c2c(C#N)c(N)nc3c2SC2(CCCCC2)N3c2ccc(F)cc2)cc1; inactive
NS(=O)(=O)c1ccc(/N=C2\CSC3(CCCCC3)N2c2ccc(F)cc2)cc1; inactive
O=C1CSC2(CCCCC2)N1c1ccc(Br)cc1; active
Fc1ccc(N2/C(=N/Nc3ccccc3)CSC23CCCCC3)cc1; inactive
O=C1/C(=N\Nc2ccc([N+](=O)[O-])cc2)SC2(CCCCC2)N1c1ccc(F)cc1; inactive
O=C1CSC2(CCCCC2)N1c1ccc(F)cc1; active

INPUT: How was `N/N=C1\CSC2(CCCCC2)N1c1ccc(F)cc1` classified in this test?
OUTPUT: active

###

# Test system: Staphylococcus aureus
# MEASUREMENT PROTOCOL: Antibacterial activity against Staphylococcus aureus NRRL B-313 after 24 hrs by agar diffusion method
# Assay type: functional, organism-based
Activity calls are given as the source filed them. The rule behind the calls is not given here.
Give your call using only these classes: true (1) (active), false (0) (inactive)

Completed entries (count: 6):
NS(=O)(=O)c1ccc(/N=C2\CSC3(CCCCC3)N2c2ccc(F)cc2)cc1; true (1)
O=C1/C(=N\Nc2ccc([N+](=O)[O-])cc2)SC2(CCCCC2)N1c1ccc(F)cc1; true (1)
Cc1ccc(-c2c3c(oc(=O)c2C#N)N(c2ccc(F)cc2)C2(CCCCC2)S3)cc1; true (1)
Fc1ccc(N2/C(=N/Nc3ccccc3)CSC23CCCCC3)cc1; true (1)
N/N=C1\CSC2(CCCCC2)N1c1ccc(F)cc1; true (1)
O=C1CSC2(CCCCC2)N1c1ccc(Br)cc1; true (1)

INPUT: How was Cc1ccc(C2NOC3=C2SC2(CCCCC2)N3c2ccc(F)cc2)cc1 (stereo unspecified) classified in this test?
OUTPUT: false (0)

INPUT: How was `Cc1ccc(-c2c(C#N)c(N)nc3c2SC2(CCCCC2)N3c2ccc(F)cc2)cc1` classified in this test?
OUTPUT: true (1)

INPUT: How was `O=C1CSC2(CCCCC2)N1c1ccc(F)cc1` classified in this test?
OUTPUT: true (1)

INPUT: How was `O=C1/C(=C\c2ccc(Cl)cc2)SC2(CCCCC2)N1c1ccc(F)cc1` classified in this test?
OUTPUT: false (0)

INPUT: How was `O=C1/C(=C\c2ccc(Cl)cc2)SC2(CCCCC2)N1c1ccc(Br)cc1` classified in this test?
OUTPUT: false (0)
